# Tested on: ABL2;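 note: KINOMEscan kinase panel screen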
# DETAILS: concentration: 1 μM, replicates: in singlicate; n = 1
Decide using %Inh alone. Strictly below 20%: met. Equal to or above 20%: not met.

Worked examples, 3 molecules total:
MOLECULE | STUDY_TARGET | GROUP
COc1ccc(S(=O)(=O)NC2CCN(c3cc(C)nc(Nc4cccc(C#N)c4)n3)CC2)cc1.O=C(O)C(F)(F)F | ABL2 | met
Cl.Oc1cccc(Nc2ccnc3cc(-c4ccncc4)ccc23)c1 | ABL2 | not met
Cn1cc(-c2ccc3c(c2)CCN3C(=O)Cc2ccccc2Cl)c2c(N)ncnc21 | ABL2 | not met

Task: Field: below-cutoff. Rule: recorded %Inh strictly less than 20%. Subject: COc1ccc(Nc2nccc(N3CCC(NC(=O)Nc4cc(C)ccc4C)C3)n2)cc1 (stereo not drawn)
Result: met

Task: Field: below-cutoff. Rule: recorded %Inh strictly less than 20%. Subject: `Cc1nnc(-c2ccc(C)c(-c3ccc(C(=O)Nc4ccc(NS(C)(=O)=O)cc4)cc3)c2)o1`
Result: met

Task: Field: below-cutoff. Rule: recorded %Inh strictly less than 20%. Subject: `c1ccc(-c2n[nH]cc2-c2ccnc3ccccc23)nc1`
Result: met

Task: Field: below-cutoff. Rule: recorded %Inh strictly less than 20%. Subject: `Cc1ccc(C(=O)NCC(N)=O)cc1-n1c(C)cc(OCc2ccc(F)cc2F)c(Br)c1=O`
Result: not met

Task: Field: below-cutoff. Rule: recorded %Inh strictly less than 20%. Subject: `COc1ccc(COc2cc(-n3cnc4ccccc43)sc2C(N)=O)cc1`
Result: met
